Tested on: Pancreatin
Test: Protease stability in simulated intestinal fluid (Pancreatin-SIF, FaSSIF)
Format: in vitro ADME
Conditions used: 120 min, 1 μM peptide, 37° C., read-out: FaSSIF 120 (min), remaining percent of peptide
Starred links: 1 amine or outer side, 2 acyl side, 3 side chain; linkers in the order of their positions; H or OH if unused. Positions of bridges follow the written chain, without caps; N, C: chain ends. Non-standard residues stand in square brackets, D forms with d. Residues, ends and D or L forms follow the SMILES beside them. *: point of attachment. X3 = CN(CCCCC(=O)N[C@@H](CS[*:2])C(=O)[*:1])[*:3]; Trp(7-Me) = Cc1cccc2c(C[C@H](N)C(=O)O)c[nH]c12; X1 = O=C(CCCCN[*:3])N[C@@H](CS[*:2])C(=O)[*:1]; 2Nal = N[C@@H](Cc1ccc2ccccc2c1)C(=O)O; AEF = NCCOc1ccc(C[C@H](N)C(=O)O)cc1; 3Pal = N[C@@H](Cc1cccnc1)C(=O)O; NMeN = CN[C@@H](CC(N)=O)C(=O)O; αMeL = CC(C)C[C@](C)(N)C(=O)O; Thp = NC1(C(=O)O)CCOCC1; Me2NCH2CH2 = CN(C)CC*; Aib = CC(C)(N)C(=O)O; Ahx = NCCCCCC(=O)O; Ava = NCCCCC(=O)O; Sar = CNCC(=O)O

# Compound, Target or test system, Units of measure, remaining at 2 h, 1 µM
measured = [
    ("C[C@@H](O)[C@@H]1NC(=O)[C@H](CC(N)=O)NC(=O)[C@@H]2CSSC[C@H](NC(=O)[C@H](CCC(N)=O)NC(=O)[C@H](Cc3c[nH]c4ccccc34)NC1=O)C(=O)N[C@@H](Cc1ccc(OCCN(C)C)cc1)C(=O)N[C@H](Cc1ccc3ccccc3c1)C(=O)NC(C)(C)C(=O)N[C@H](C(=O)N[C@@H](CC(N)=O)C(=O)N[C@@H](CC(N)=O)C(N)=O)CCC(=O)NCCCCC(=O)N2 [compound 8]", "Pancreatin", "%", 91),
    ("CC(=O)NCCCC[C@@H]1NC(=O)[C@H](Cc2c[nH]c3c(C)cccc23)NC(=O)[C@H]([C@@H](C)O)NC(=O)[C@H](CC(N)=O)NC(=O)[C@@H]2CSSC[C@H](NC1=O)C(=O)N[C@@H](Cc1ccc(OCCN(C)C)cc1)C(=O)N[C@@H](Cc1ccc3ccccc3c1)C(=O)NC(C)(C)C(=O)N[C@H](C(=O)N[C@@H](CC(N)=O)C(=O)N[C@@H](Cc1c[nH]cn1)C(=O)N(C)CC(N)=O)CCC(=O)NCCCCC(=O)N2 [compound 45] ([Ava]CNT[Trp(7-Me)]K(Ac)CY(Me2NCH2CH2)[2Nal][Aib]ENH[Sar]-NH2; disulfide 2-7; lactam N-11)", "Pancreatin", "%", 83),
    ("Cc1cccc2c(C[C@@H]3NC(=O)[C@H]([C@@H](C)O)NC(=O)[C@H](CC(N)=O)NC(=O)[C@@H]4CSSC[C@H](NC(=O)[C@H](CCC(N)=O)NC3=O)C(=O)N[C@@H](Cc3ccc(OCCN(C)C)cc3)C(=O)N[C@@H](Cc3ccc5ccccc5c3)C(=O)NC(C)(C)C(=O)N[C@H](C(=O)N[C@@H](CC(N)=O)C(=O)N[C@@H](Cc3c[nH]cn3)C(N)=O)CCC(=O)NCCCCC(=O)N4)c[nH]c12 [compound 52] ([Ava]CNT[Trp(7-Me)]QCY(Me2NCH2CH2)[2Nal][Aib]ENH-NH2; disulfide 2-7; lactam N-11)", "Pancreatin", "%", 76),
    ("CC(=O)N[C@H]1CCCCNC(=O)[C@@H]2CSSC[C@H](NC(=O)[C@H](CCC(N)=O)NC(=O)[C@H](Cc3c[nH]c4ccccc34)NC1=O)C(=O)N[C@@H](Cc1ccc(OCCN)cc1)C(=O)N[C@@H](Cc1ccc3ccccc3c1)C(=O)NC1(CCOCC1)C(=O)N[C@H](C(=O)N[C@@H](C)C(=O)N[C@H](CC(C)C)C(N)=O)CCC(=O)N(C)CCCCC(=O)N2 [compound 34] (Ac-KWQC[AEF][2Nal][Thp]EA[dL]-NH2; linker 1-4-8 via X3)", "Pancreatin", "%", 99),
    ("C[C@H](NC(=O)[C@@H]1CC(=O)NCCCCCC(=O)N[C@H]2CSSC[C@H](NC(=O)[C@H](CCC(N)=O)NC(=O)[C@H](Cc3c[nH]c4ccccc34)NC(=O)CCCCNC2=O)C(=O)N[C@@H](Cc2ccc(OCCN)cc2)C(=O)N[C@@H](Cc2ccc3ccccc3c2)C(=O)NC(C)(C)C(=O)N1)C(=O)NCC(N)=O [compound 53] ([Ahx]C[Ava]WQC[AEF][2Nal][Aib]DAG-NH2; disulfide 2-6; lactam N-10)", "Pancreatin", "%", 89),
    ("CC(C)C[C@]1(C)NC(=O)[C@H](Cc2ccc3ccccc3c2)NC(=O)[C@H](Cc2ccc(OCCN(C)C)cc2)NC(=O)[C@@H]2CSSC[C@H](NC(=O)CCCCNC(=O)CC[C@@H](C(=O)N[C@@H](CC(N)=O)C(=O)N[C@@H](CC(N)=O)C(N)=O)NC1=O)C(=O)N[C@@H](CC(N)=O)C(=O)N[C@@H]([C@@H](C)O)C(=O)N[C@@H](Cc1c[nH]c3ccccc13)C(=O)N[C@@H](CCC(N)=O)C(=O)N2 [compound 27] ([Ava]CNTWQCY(Me2NCH2CH2)[2Nal][αMeL]ENN-NH2; disulfide 2-7; lactam N-11)", "Pancreatin", "%", 82),
    ("CC(=O)NCCCC[C@@H]1NC(=O)[C@H](Cc2c[nH]c3c(C)cccc23)NC(=O)[C@@H](NC(C)=O)CCCCNC(=O)[C@@H]2CSSC[C@H](NC1=O)C(=O)N[C@@H](Cc1ccc(OCCN(C)C)cc1)C(=O)N[C@@H](Cc1ccc3ccccc3c1)C(=O)N[C@@](C)(CC(C)C)C(=O)N[C@H](C(=O)N[C@@H](CC(N)=O)C(=O)N[C@@H](Cc1cccnc1)C(=O)N(C)CC(N)=O)CCC(=O)NCCCCC(=O)N2 [compound 73] (Ac-K[Trp(7-Me)]K(Ac)CY(Me2NCH2CH2)[2Nal][αMeL]EN[3Pal][Sar]-NH2; linker 1-4-8 via X1)", "Pancreatin", "%", 81),
    ("COc1ccc(C[C@@H]2NC(=O)[C@@H]3CSSC[C@H](NC(=O)CCCCCNC(=O)C[C@@H](C(=O)N[C@@H](CC(N)=O)C(=O)N[C@@H](CC(N)=O)C(N)=O)NC(=O)C(C)(C)NC(=O)[C@H](Cc4ccc5ccccc5c4)NC2=O)C(=O)N(C)[C@@H](CC(N)=O)C(=O)N[C@@H]([C@@H](C)O)C(=O)N[C@@H](Cc2c[nH]c4ccccc24)C(=O)N[C@@H](CCC(N)=O)C(=O)N3)cc1 [compound 6] ([Ahx]C[NMeN]TWQCY(Me)[2Nal][Aib]DNN-NH2; disulfide 2-7; lactam N-11)", "Pancreatin", "%", 77),
    ("CC(=O)N[C@H]1CCCCNC(=O)[C@@H]2CSSC[C@H](NC(=O)[C@H](CCC(N)=O)NC(=O)[C@H](Cc3c[nH]c4ccccc34)NC1=O)C(=O)N[C@@H](Cc1ccc(OCCN)cc1)C(=O)N[C@@H](Cc1ccc3ccccc3c1)C(=O)NC(C)(C)C(=O)N[C@H](C(=O)N[C@@H](CC(N)=O)C(=O)NCC(N)=O)CCC(=O)N(C)CCCCC(=O)N2 [compound 15] (Ac-KWQC[AEF][2Nal][Aib]ENG-NH2; linker 1-4-8 via X3)", "Pancreatin", "%", 65),
]
